test: Absorption by oral administration in monkey (plasma concentration, thin layer cup bio-assay);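 also: plasma concentration in γ/ml (µg/mL) rather than the printed ng/mL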; type: in vivo; conditions: 100 mg/kg, Run 1, 2 hour, read-out: Amount of test compd. in plasma
EXPERIMENTAL ENDPOINT: concentration at 2 h

Reported concentration at 2 h for "CN1CCN(c2cc3c(cc2F)c(=O)c(C(=O)O)cn3-c2ccc(O)cc2)CC1" : what is it? 650 ng/mL

* * *

assay: Absorption by oral administration in monkey (plasma concentration, thin layer cup bio-assay);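 also: plasma concentration in γ/ml (µg/mL) rather than the printed ng/mL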; assay type: in vivo; settings: 100 mg/kg, Run 1, 7 hour, read-out: Amount of test compd. in plasma
EXPERIMENTAL ENDPOINT: concentration at 7 h (ng/mL)
Return type: number; implicit unit ng/mL.

Reported concentration at 7 h for "CN1CCN(c2cc3c(cc2F)c(=O)c(C(=O)O)cn3-c2ccc(O)cc2)CC1" : what is it? 950

* * *

assay: Absorption by oral administration in monkey (plasma concentration, thin layer cup bio-assay);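 also: plasma concentration in γ/ml (µg/mL) rather than the printed ng/mL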; assay type: in vivo; settings: 10 mg/kg, Run 2, 2 hour, read-out: Amount of test compd. in plasma
EXPERIMENTAL ENDPOINT: concentration at 2 h
Write your answer as a measured quantity: the number, then the unit.

Reported concentration at 2 h for CN1CCN(c2c(F)cc3c(=O)c(C(=O)O)cn(-c4ccc(O)cc4)c3c2F)CC1 [Test Compd. No. 1] : what is it? 1120 ng/mL

* * *

test system: Staphylococcus pyrogens IID S-23; assay: MIC by serial dilution method on agar plate; type: cell-based; details: 1 × 10^6 cells/ml
Recorded minimum inhibitory concentration (MIC) values for a group of molecules are listed next.

Reported minimum inhibitory concentration (MIC) for "CN1CCN(c2cc3c(cc2F)c(=O)c(C(=O)O)cn3-c2ccc(F)cc2)CC1" : what is it? 3.12

Reported minimum inhibitory concentration (MIC) for "CN1CCN(c2c(F)cc3c(=O)c(C(=O)O)cn(-c4ccc(O)cc4)c3c2F)CC1" : what is it? 0.39

Reported minimum inhibitory concentration (MIC) for "O=C(O)c1cn(-c2ccc(F)cc2)c2cc(N3CCNCC3)c(F)cc2c1=O" : what is it? 3.12

Now look at this one.
Reported minimum inhibitory concentration (MIC) for "CN1CCN(c2cc3c(cc2F)c(=O)c(C(=O)O)cn3-c2ccc(O)cc2)CC1" : what is it? 0.78

* * *

experiment: Absorption by oral administration in monkey (plasma concentration, thin layer cup bio-assay);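 also: plasma concentration in γ/ml (µg/mL) rather than the printed ng/mL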; assay type: in vivo; settings: 100 mg/kg, Run 2, 4 hour, read-out: Amount of test compd. in plasma
EXPERIMENTAL ENDPOINT: concentration at 4 h

Reported concentration at 4 h for "CN1CCN(c2cc3c(cc2F)c(=O)c(C(=O)O)cn3-c2ccc(O)cc2)CC1" : what is it? < 390 ng/mL

* * *

assay: Absorption by oral administration in monkey (plasma concentration, thin layer cup bio-assay);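 also: plasma concentration in γ/ml (µg/mL) rather than the printed ng/mL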; format: in vivo; settings: 10 mg/kg, Run 2, 0.5 hour, read-out: Amount of test compd. in plasma
EXPERIMENTAL ENDPOINT: concentration at 0.5 h

Reported concentration at 0.5 h for "CN1CCN(c2c(F)cc3c(=O)c(C(=O)O)cn(-c4ccc(O)cc4)c3c2F)CC1" : what is it? < 200 ng/mL

* * *

test: Absorption by oral administration in monkey (plasma concentration, thin layer cup bio-assay);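 also: plasma concentration in γ/ml (µg/mL) rather than the printed ng/mL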; type: in vivo; settings: 100 mg/kg, average of two runs, 2 hour, read-out: Amount of test compd. in plasma, Average
EXPERIMENTAL ENDPOINT: concentration at 2 h

Reported concentration at 2 h for "CN1CCN(c2cc3c(cc2F)c(=O)c(C(=O)O)cn3-c2ccc(O)cc2)CC1" : what is it? < 430 ng/mL
